system: Escherichia coli; test: In vitro antibacterial activity against Escherichia coli J3272 Tet D; type: functional
readout type: MIC (µg/mL)

{"columns": ["compound", "test system", "quantity unit", "MIC"],
 "data": [
  ["CN(C)c1cc(NC(=O)CN2CCCCC2)c(O)c2c1CC1CC3[C@H](N(C)C)C(=O)C(C(N)=O)=C(O)[C@@]3(O)C(=O)C1=C2O (stereo partly drawn)", "Escherichia coli", "µg/mL", 0.5]
]}

(1) CN(C)c1cc(NC(=O)CN2CCSCC2)c(O)c2c1CC1CC3[C@H](N(C)C)C(=O)C(C(N)=O)=C(O)[C@@]3(O)C(=O)C1=C2O (stereo partly drawn)
(2) CCCCCCNCC(=O)Nc1cc(N(C)C)c2c(c1O)C(=O)C1=C(O)[C@]3(O)C(O)=C(C(N)=O)C(=O)[C@@H](N(C)C)C3CC1C2 (stereo partly drawn)
(3) CN(C)c1cc(NC(=O)CNC2CCCCCCC2)c(O)c2c1CC1CC3[C@H](N(C)C)C(=O)C(C(N)=O)=C(O)[C@@]3(O)C(=O)C1=C2O (stereo partly drawn)
Rank descending by MIC. I would appreciate it if you listed the labels in the requested order.
1, 3, 2

---

test system: Staphylococcus aureus; assay: In vitro antibacterial activity against Staphylococcus aureus UBMS 90-3 sensitive; format: functional
readout type: MIC (µg/mL)

Below are worked cases with known answers.
{"columns": ["compound", "readout type", "test result"],
 "data": [
  ["CN(C)c1cc(NC(=O)Cn2ccnc2)c(O)c2c1CC1CC3[C@H](N(C)C)C(=O)C(C(N)=O)=C(O)[C@@]3(O)C(=O)C1=C2O (stereo partly specified)", "MIC", 4],
  ["CN(C)c1cc(NC(=O)CNC2CC3CCC2C3)c(O)c2c1CC1CC3[C@H](N(C)C)C(=O)C(C(N)=O)=C(O)[C@@]3(O)C(=O)C1=C2O (stereo partly specified)", "MIC", 0.25],
  ["CCCCCCCCCCCNCC(=O)Nc1cc(N(C)C)c2c(c1O)C(=O)C1=C(O)[C@]3(O)C(O)=C(C(N)=O)C(=O)[C@@H](N(C)C)C3CC1C2 (stereo partly specified)", "MIC", 0.5],
  ["CN(C)c1cc(NC(=O)CNCc2ccccc2)c(O)c2c1CC1CC3[C@H](N(C)C)C(=O)C(C(N)=O)=C(O)[C@@]3(O)C(=O)C1=C2O (stereo partly specified)", "MIC", 0.25]
]}

(P) CN(C)c1cc(NC(=O)CNCC2CC2)c(O)c2c1CC1CC3[C@H](N(C)C)C(=O)C(C(N)=O)=C(O)[C@@]3(O)C(=O)C1=C2O (stereo partly specified)
(Q) CN(C)[C@@H]1C(O)=C(C(N)=O)C(=O)[C@@]2(O)C(O)=C3C(=O)c4c(O)cccc4[C@@](C)(O)[C@H]3C[C@@H]12
Would you mind telling me which has the lower recorded MIC between P and Q ? Write the label of whichever entry you select.
Q
(Q: 0.25 µg/mL, P: 0.5 µg/mL)

---

test system: Escherichia coli; assay: In vitro antibacterial activity against Escherichia coli UBMS 90-5 sensitive; assay type: functional
readout type: MIC (µg/mL)

{"columns": ["compound", "MIC / µg/mL"],
 "data": [
  ["CN(C)[C@@H]1C(O)=C(C(N)=O)C(=O)[C@@]2(O)C(O)=C3C(=O)c4c(O)cccc4[C@@](C)(O)[C@H]3C[C@@H]12 [TETRACYCLINE]", 1],
  ["CN(C)c1cc(NC(=O)CN2CCC2)c(O)c2c1CC1CC3[C@H](N(C)C)C(=O)C(C(N)=O)=C(O)[C@@]3(O)C(=O)C1=C2O (some centres undefined)", 0.25],
  ["CN(C)c1cc(NC(=O)CBr)c(O)c2c1CC1CC3[C@H](N(C)C)C(=O)C(C(N)=O)=C(O)[C@@]3(O)C(=O)C1=C2O (some centres undefined)", 16]
]}

(I) CN(C)CC(=O)Nc1cc(N(C)C)c2c(c1O)C(=O)C1=C(O)[C@]3(O)C(O)=C(C(N)=O)C(=O)[C@@H](N(C)C)C3CC1C2 (some centres undefined)
(II) CN(C)c1cc(NC(=O)CNC2CC3CCC2C3)c(O)c2c1CC1CC3[C@H](N(C)C)C(=O)C(C(N)=O)=C(O)[C@@]3(O)C(=O)C1=C2O (some centres undefined)
Given I and II , report the one with the higher recorded MIC. Give the label under which the chosen entry appears.
II
(II: 0.5 µg/mL, I: 0.25 µg/mL)
